# assay_explanation: physchem
# particulars: octan-1-ol/water, pH 7.4, LogD7.4
Decision: logD compared against 2; not below it gives Satisfied, below it gives Not satisfied.

INPUT: Exam item: decide whether the reported logD for `Cc1cn([C@H]2CCCN(S(=O)(=O)c3ccc(O)c(Oc4ccccc4)c3)C2)c(=O)[nH]c1=O` is at least 2.
OUTPUT: Not satisfied

INPUT: Exam item: decide whether the reported logD for CCN(CC)CCNC(=O)c1cc(Br)c(N)cc1OC [BROMOPRIDE] is at least 2.
OUTPUT: Not satisfied

INPUT: Exam item: decide whether the reported logD for `CNc1cccc(CCCc2ccc(C[C@H](NC(=O)c3c(Cl)cccc3Cl)C(=O)O)cc2)n1` is at least 2.
OUTPUT: Not satisfied

INPUT: Exam item: decide whether the reported logD for CC12CC3CC(C)(C1)CC(N)(C3)C2 [MEMANTINE] is at least 2.
OUTPUT: Not satisfied

INPUT: Exam item: decide whether the reported logD for `CC(C)Cn1c(=O)n(C)c(=O)c2c(C(=O)N3CC[C@@H](O)C3)c(Cc3ccccc3C(F)(F)F)sc21` is at least 2.
OUTPUT: Satisfied

INPUT: Exam item: decide whether the reported logD for Cc1ccc2c(c1)c([S+]([O-])c1ccc(Cl)cc1)c(C)n2CC(=O)O (configuration not stated) is at least 2.
OUTPUT: Not satisfied

INPUT: Exam item: decide whether the reported logD for `O=c1[nH]c2c(O)ccc([C@@H](O)CNCCc3ccc(CNCCc4ccccn4)cc3)c2s1` is at least 2.
OUTPUT: Not satisfied

INPUT: Exam item: decide whether the reported logD for CN1CC=CCC(c2cc3ccccc3o2)C1 (configuration not stated) is at least 2.
OUTPUT: Satisfied

INPUT: Exam item: decide whether the reported logD for `COc1cc2c(Nc3cc(CC(=O)Nc4cccc(F)c4F)[nH]n3)ncnc2cc1OCCCN(CCO)CC(C)C` is at least 2.
OUTPUT: Satisfied

INPUT: Exam item: decide whether the reported logD for FC(F)(F)c1cc(COCC(c2cccc(Cl)c2)N2CCNCC2)cc(C(F)(F)F)c1 (configuration not stated) is at least 2.
OUTPUT: Satisfied

INPUT: Exam item: decide whether the reported logD for `Cc1nc2nc(-c3cccnc3)nn2c(O)c1Cc1ccccc1` is at least 2.
OUTPUT: Not satisfied

INPUT: Exam item: decide whether the reported logD for `COc1cc(Nc2cc(Oc3ccc(C)nc3)ccn2)cc(OC)c1OC` is at least 2.
OUTPUT: Satisfied

INPUT: Exam item: decide whether the reported logD for `CS(=O)(=O)c1ccccc1C(=O)NC[C@@H](O)CN1CCC(Oc2ccc(Cl)c(Cl)c2)CC1` is at least 2.
OUTPUT: Satisfied

INPUT: Exam item: decide whether the reported logD for `O=C(O)CCc1ccc(NCc2cccc(Oc3ccccc3)c2)cc1` is at least 2.
OUTPUT: Satisfied

INPUT: Exam item: decide whether the reported logD for `Cc1ccc(Sc2ccccc2CN(C)C)c(N)c1` is at least 2.
OUTPUT: Satisfied

INPUT: Exam item: decide whether the reported logD for `CNc1c(Br)cnc2[nH]c(-c3ccc(O)cc3)nc12` is at least 2.
OUTPUT: Satisfied
